experimental-target: T1, WHRN NPDZ1 (UniProt Q9P202 33-239)
T1 chain: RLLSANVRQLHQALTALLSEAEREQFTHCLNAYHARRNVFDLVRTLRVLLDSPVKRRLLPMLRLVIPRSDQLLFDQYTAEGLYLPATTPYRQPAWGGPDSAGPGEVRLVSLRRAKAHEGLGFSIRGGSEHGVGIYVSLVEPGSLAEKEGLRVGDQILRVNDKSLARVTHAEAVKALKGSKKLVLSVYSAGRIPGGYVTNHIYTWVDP
assay-info: ITC; MicroCal iTC200, 25 °C; 50 mM tris pH 7.5-8.0, 300 mM NaCl, 1 mM DTT, 1 mM EDTA; cell 20–50 µM, syringe 400–800 µM; one-site binding model
outcome-measure: Kd (µM)
Write down the numeric answer in µM and omit the unit.

Incoming: Given the entry USH2A-CT (domain or fragment) PSQSQLSHAYSQSSLHRSVSQLMDMADKKVVTEDSLWETIMGHSSGLYVDEEELMNAIKGFSSVTKEHTAFTDTHL , report its measured Kd.
Outgoing: 5.1

Data credit: paper PMC10039067
